Numbers sourced from the supplement of paper PMC8975748.

Test system: Saccharomyces cerevisiae BY4741 SeMeCo community
Test: z-score of subpopulation abundance vs DMSO median, subpopulation auxotrophic for U; higher = larger share of this subpopulation than in DMSO controls
Conditions: 10 µM; 24 h; SM minimal medium; subpopulation (auxotrophy): U
Structures can show the parent of a compound that is named as a salt.
Label rule met when z-score of subpopulation abundance is at or above 0.3; otherwise label rule not met.

* C[C@@H](O)[C@H]1C(=O)N2C(C(=O)O)=C([C@H]3CCCO3)S[C@H]12 [Faropenem Sodium] | rule met
* CCCc1cc(C(N)=S)ccn1 [Protionamide] | rule not met
* C[C@H]1[C@H](NC(=O)/C(=N\OC(C)(C)C(=O)O)c2csc(N)n2)C(=O)N1S(=O)(=O)O | rule not met
* CC[C@@H]1/C=C(\C)C[C@H](C)C[C@H](OC)[C@H]2O[C@@](O)(C(=O)C(=O)N3CCCC[C@H]3C(=O)O[C@H](/C(C)=C/[C@@H]3CC[C@H](Cl)[C@H](OC)C3)[C@H](C)[C@@H](O)CC1=O)[C@H](C)C[C@@H]2OC | rule not met
* CCN1CCCC1CNC(=O)c1cc(S(N)(=O)=O)ccc1OC (stereo unspecified) [Sulpiride] | rule not met
* Fc1ccc([C@@H]2CCNC[C@H]2COc2ccc3c(c2)OCO3)cc1 [Paroxetine mesylate] | rule met
* CCN(CC)CCOC(=O)c1ccc(N)cc1 [Procaine] | rule met
* CCN(CC)CCOC(=O)c1ccc(N)cc1 [Procaine HCl] | rule not met
* O=C(C1CCCCC1)N1CC(=O)N2CCc3ccccc3C2C1 (stereo unspecified) | rule met
* CC1=CC[C@@](O)(C(C)C)CC1 | rule met
* CO/N=C(\C(=O)N[C@@H]1C(=O)N2C(C(=O)O)=CCS[C@H]12)c1csc(N)n1 | rule not met
* Cc1cc(NS(=O)(=O)c2ccc(N)cc2)no1 [Sulfamethoxazole] | rule not met
* O=C1NCC2(CCN(CCc3ccccc3)CC2)O1 [Fenspiride HCl] | rule not met
* COc1cc(/C=C/C(=O)N2CCN(CC(=O)N3CCCC3)CC2)cc(OC)c1OC [Cinepazide maleate] | rule met
* O=C(O)C1=C(CSc2nnnn2CS(=O)(=O)O)CS[C@@H]2[C@H](NC(=O)[C@H](O)c3ccccc3)C(=O)N12 [Cefonicid sodium] | rule met
* NCc1ccccc1CC(=O)N[C@@H]1C(=O)N2C(C(=O)O)=C(CSc3nnnn3CC(=O)O)CS[C@H]12 [Ceforanide] | rule not met
* C[C@@H](O)[C@H]1C(=O)N2C(C(=O)O)=C(S[C@@H]3CN[C@H](C(=O)N(C)C)C3)[C@H](C)[C@H]12 [Meropenem] | rule not met
* CC(=O)[C@H]1CC[C@H]2[C@@H]3CCC4=CC(=O)CC[C@]4(C)[C@H]3CC[C@]12C | rule not met
* COCCCOc1ccnc(C[S+]([O-])c2nc3ccccc3[nH]2)c1C (stereo unspecified) | rule met
* CC(C(=O)O)c1cccc(C(=O)c2ccccc2)c1 (stereo unspecified) | rule not met
* CC(C(=O)O)c1ccc2c(c1)[nH]c1ccc(Cl)cc12 (stereo unspecified) | rule not met
* O=C(Cn1ccnc1[N+](=O)[O-])NCc1ccccc1 | rule met
* CCCCCc1ccc(C)cc1O | rule met
* COc1ccc2c3c1O[C@H]1C[C@@H](O)C=C[C@@]31CCN(C)C2 [Galanthamine HBr] | rule not met
* CN[C@@H]1[C@H](O[C@H]2[C@H](O[C@H]3[C@H](O)[C@@H](O)[C@H](NC(=N)N)[C@@H](O)[C@@H]3NC(=N)N)O[C@@H](C)[C@]2(O)CO)O[C@@H](CO)[C@H](O)[C@H]1O [Dihydrostreptomycin sulfate] | rule met
* CCCCCCCCc1ccc(CCC(N)(CO)CO)cc1 | rule not met
* CC(C)c1nc(N(C)S(C)(=O)=O)nc(-c2ccc(F)cc2)c1/C=C/[C@@H](O)C[C@@H](O)CC(=O)O [Rosuvastatin] | rule not met
* Cc1cc(-n2c(=O)[nH]c(=O)n(C)c2=O)ccc1Oc1ccc(SC(F)(F)F)cc1 | rule not met
* CCCN1CCCC[C@H]1C(=O)Nc1c(C)cccc1C [Ropivacaine HCl] | rule met
* CC(=O)O[C@]1(C(C)=O)CC[C@H]2[C@@H]3C[C@H](C)C4=CC(=O)CC[C@]4(C)[C@H]3CC[C@@]21C [Medroxyprogesterone acetate] | rule met
* O=c1[nH]cc(F)c(=O)[nH]1 | rule not met
